The reported numbers originate from the nanobody polyreactivity screen of Harvey et al. (2022).

- Run description: yeast display, Sf9 membrane polyspecificity reagent, FACS + sequencing; frameworks hold sequencing errors
Property label: polyreactivity (PSR sort gate)

Monomer sequence | Property label | Value measured
QVQLVESGGGLVQAGGSLRLSCAASGIIFSWYAMGWYRQAPGKERELVATISSGAHTYYADSVKGRFTISRDNAKNTVYLQMNSLKPEDTAVYYCATTSYGYWFGYIPEVDYWGQGTQVTVSS | polyreactivity (PSR sort gate) | low polyreactivity
QLQLVESGGGLVQAGGSLRLSCAASVRTFNSYAMGRYRQAPGKERELVAGISTSGDNTYYADSVKGRFTISRDNAKNTVFLQMNSLKPEDSAVYYCATQFPPSTIYDYWGQGTQVTVSS | polyreactivity (PSR sort gate) | low polyreactivity
QVQLVESGGGLVQAGGSLRLSSAASGSTFGPYAMGWYRQAPGKERELVATITRNGGSTYYADSVKGRFTISRDYAKNTVYLQMNSLKPEETAFYSCNAEGRWSSFTQRMDYWGQGTQVNVSS | polyreactivity (PSR sort gate) | low polyreactivity
QVQLVESGGGLDQAGGSLRLSCAASGSIFNDNVMGWYRQAPWKERELVAGISRSGTRTYYADSVKGRFTISRDNAKNTVYLQMNSLKPEDTAVYYCAAAYGQARRYNGSQYGSWGQGTQVTVSS | polyreactivity (PSR sort gate) | high polyreactivity
QVQLVESGGGLVQAGGSLRLICAASGRTYHYYTLGWYRQSPGKERELVARISLGVGSTYYADSVKGRFTISRDNAKNTVDLQMYTLIPEDTAVYYCNAVWYKSFVKGVYGRVDWGQGTQVTVSS | polyreactivity (PSR sort gate) | low polyreactivity
QVRLVESGGGLVQAGGSLRLSCADSGSTLDINAMGWYTQAPGKERELVASISWTGGHTYYADSVKGRFTISRDNAKNTVYLQMNSLKPEDTAVYYCAATHQETVYYFLSIFDDWGQGTQVTLSS | polyreactivity (PSR sort gate) | low polyreactivity
QVQLVESGGGLVQAGGSLRLSCAASGRIFPFYAMGWYRQAPGKERELVAAITSSGGRTYYADSVKGRFTISRDNAKNTVYLQMNSLKPEDTAVYYCAAGHGGYYRYFSQRDYWGQGTQVTVSS | polyreactivity (PSR sort gate) | low polyreactivity
QVKLVESGGGLVQAGGSLRLTCDASGRIFSSYAMGWYRQAPGKERELVAAIRSSGDRTYYADSVKGRFTISRDNAKNTVYLQMNSLKPEDTAVYYCAARAVLKSWAYYYWGQGTQVTVSS | polyreactivity (PSR sort gate) | high polyreactivity
QVKLVESGGGLVQAGGSLRLSCAASGFTFYYYTMGGSRQAPGKERELVAAITSRGGNTYYADSVKGRFTISRDYEKNTVYLQMNSLKPEDTAVYYCAACLFSSRCYGYWGQGTQVTVSS | polyreactivity (PSR sort gate) | high polyreactivity
QVQLVQSVGGLVQAGGSLRLSCAASGSIFIWNAMGWYRQAPGKVRELVAAISFTGTSTYYADSVTGRFTISRDNAKNTVYLEMNSLKPEDNAVYYCNNDYRGSQYDYWGQGTQVTVSS | polyreactivity (PSR sort gate) | low polyreactivity
QVQLGESGGGLVQAGGSLRLSCAASGITFTKYVMGWYRQAPGKERELVATIRWGASSTHYADSVKGRFTISRDNAKNTVYLQMNSLKPEDTAVYYCNADGWYGAVYWWFYGFDYWGQGTQVTVSS | polyreactivity (PSR sort gate) | low polyreactivity
QVQLVESGGGLVQAGGSLRLSCAASGFILYYYVMGWYRQAPGKERELVAAISTSGTSTYYADSVKGRFTISRDNAKNTVYLQMNSLKPEDTAVYYCAAEKDSSDIMEYWGQGTQVTVSS | polyreactivity (PSR sort gate) | high polyreactivity
QVQLVESGGGLVQAGGSRRLRCAASGRTFWTYAMGWYRQAPGKEREFVAAISYSGSSTYADSVKGRFTISRDNATNTVYLQMKSLKPEDTAVYFCAAYLYTAVVAYGYVSWGQGTQVTVSS | polyreactivity (PSR sort gate) | low polyreactivity
QVQLVESGGALVQARGSLRLSSASSGSTFYPNAMGWYIQARGKEREFVAAISFSDGSTYYADSVKGRFTISRDNANNTVYLQMNSPKAEATAVYYCNKGASPDDYDYWGQGTQVTVSS | polyreactivity (PSR sort gate) | low polyreactivity
QVQLVESGGGLVQAGGSLRLSCAASGSIFRGYAMGWYRQAPGKERELVAAITKIGASTYYADSVKGRFTISRDNAKNTVYLQMYSLKPEDTAVYYCNKDRGITPYRAYWGMDYWGQGTQVTVSS | polyreactivity (PSR sort gate) | low polyreactivity
QVQLVESGGGLVQPGGSLRISCAASGSTFEYYAMGWYRQAPGKERELVAAITGSGGSTNYADSVKGRFTISRDNAKNTVYLQMNSLKPEDTAVYYCAADVYDAGVRYDYWGQGTQVTVSS | polyreactivity (PSR sort gate) | high polyreactivity
QVQLVESGGGLVQAGGSLRLSCAASGIISGDYALGWYRQAPGKERELVARITSGDSTNYADSVKGRFTISRDNAKNTVYLQMNSLKPEDTAVYYCAADRVWAYWTYGYWGQGTQVTVSS | polyreactivity (PSR sort gate) | low polyreactivity
QVQLVESGGGLVQAGGSLRLSCAASGGIFYYYAMGWYRQAPGKERQLVAGISADGGSTYYADSVKGRFTISRDNAKNTVYLQMNSLKPEDTAVYYCAADGQFDDYYSLAFDYDYWGQGTQVTVSS | polyreactivity (PSR sort gate) | high polyreactivity
QVQLVQSGGGLVQAGGSLRLSCAASGLIFRYYTMGWYRQAPGKERELVAAISSGGSTRYADSVKGRFTISRDNAKNTVYLQMNSLKPEDTAVYYCAAKLYYYVQGRYNYWGQGTQVTVSS | polyreactivity (PSR sort gate) | high polyreactivity
QVQLVESGGGLVQAGGSLRLSCAASGLIFWKYARGWYRQAPGKERELVAAIRKSVGSTYYADSVKGRFTISRDNAKNTVYLQMNSLKPEDTAVYYCAAVNAGVGSPVKRDYWGQGTQVTVSS | polyreactivity (PSR sort gate) | high polyreactivity
QVHLVESGGGLVQAGGSLRLSCAASGSTFTDYTIGWYRQAPGKERELVARIRSRGARTYYADSVKGRFTISRDNAKNTVYLQMNSLKPEDTAVNSCNKRWGCLRASPAYDYWGQGTQVTVSS | polyreactivity (PSR sort gate) | high polyreactivity
